The reported numbers originate from ChEMBL document CHEMBL1156857.

test: Permeability from apical to basolateral side of the human Caco-2 cells at pH 7.4; format: ADME, cell-based; settings: Caco-2, pH 7.4, read-out: permeability
Task for the reader: assign each of the following compounds its reported Papp A→B.
State just the number; it will be interpreted in ×10⁻⁶ cm/s.

Query string: What does the record list as Papp A→B for `O=C(O)c1ccc2c(C3CCCCC3)c(-c3ccoc3)n(CC(=O)N3CCC(N4CCCC4)CC3)c2c1` ?
Result string: 1.4

Query string: Query: Papp A→B; subject: `CCN1CCN(C(=O)Cn2c(-c3ccoc3)c(C3CCCCC3)c3ccc(C(=O)O)cc32)CC1`
Result string: 6.5

Query string: Quick one: Papp A→B for `CN1CCC(N(C)C(=O)Cn2c(-c3ccoc3)c(C3CCCCC3)c3ccc(C(=O)O)cc32)CC1` ?
Result string: 0.2
